All figures here come from patent US10941137B2.

target: α5β2γ2 GABAA receptor (Homo sapiens, UniProt P18507+P31644); assay: Assay B: modulation of α5β2γ2 GABAA receptor, two-electrode voltage clamp in oocytes; settings: oocytes, TEVC, co-application with GABA 0.5 μM (EC5-20); read-out: Assay B: GABAA α5β3γ2 EC50
Sequence (P31644 32-462): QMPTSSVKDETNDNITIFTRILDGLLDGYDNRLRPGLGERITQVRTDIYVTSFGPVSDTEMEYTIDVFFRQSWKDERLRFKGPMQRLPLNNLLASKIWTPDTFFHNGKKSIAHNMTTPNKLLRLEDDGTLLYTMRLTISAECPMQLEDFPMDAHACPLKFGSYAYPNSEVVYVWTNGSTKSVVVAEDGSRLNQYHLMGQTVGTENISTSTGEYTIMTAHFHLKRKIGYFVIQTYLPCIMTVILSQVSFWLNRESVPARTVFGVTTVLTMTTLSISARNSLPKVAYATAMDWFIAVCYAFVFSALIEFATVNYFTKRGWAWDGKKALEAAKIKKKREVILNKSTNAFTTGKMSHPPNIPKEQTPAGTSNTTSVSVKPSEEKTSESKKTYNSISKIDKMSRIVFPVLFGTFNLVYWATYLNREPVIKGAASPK
Sequence (P18507 40-376 limits assumed): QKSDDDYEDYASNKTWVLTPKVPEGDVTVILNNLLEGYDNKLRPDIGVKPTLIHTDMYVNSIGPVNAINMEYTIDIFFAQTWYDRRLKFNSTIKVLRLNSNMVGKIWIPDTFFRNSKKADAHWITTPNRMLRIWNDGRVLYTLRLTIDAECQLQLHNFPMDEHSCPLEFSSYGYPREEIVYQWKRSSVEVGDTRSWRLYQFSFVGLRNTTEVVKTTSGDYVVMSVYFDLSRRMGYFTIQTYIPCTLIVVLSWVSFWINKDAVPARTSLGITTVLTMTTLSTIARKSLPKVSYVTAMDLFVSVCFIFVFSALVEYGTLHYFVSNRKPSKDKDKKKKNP
# EC50 per entry
Give your result in nM as a bare value.

// known answers, use as guide
- MOLECULE: "Cc1nnn(-c2ccc(C(F)F)cc2)c1COc1ccc(-n2cnc(C(F)F)c2)nn1 [Example 15]"
  EC50 / nM: 1.4
- MOLECULE: "Cc1nnn(-c2ccc(C(F)F)cc2)c1COc1ccc(-n2cnc(CN)c2)nn1 [Example 35]"
  EC50 / nM: 2.1
- MOLECULE: "Cc1nnn(-c2ccc(C(F)F)cc2)c1COc1ccc(-n2cnc(C(=O)O)c2)nn1 [Example 37]"
  EC50 / nM: 4.7
- MOLECULE: "CNC(=O)c1cn(-c2ccc(OCc3c(C)nnn3-c3ccc(C(F)F)cc3)nn2)cn1 [Example 14]"
  EC50 / nM: 2.3
- MOLECULE: "COC(=O)c1cn(-c2ccc(OCc3c(C)nnn3-c3ccc(C(F)F)cc3)nn2)cn1 [Example 29]"
  EC50 / nM: 1.8

Query: Requested read-out: EC50. Entry: Cc1n[nH]c(C)c1-c1ccc(OCc2c(C)nnn2-c2ccc(C(F)F)cc2)nn1 [Example 12]
Result: 13

Query: Then this molecule: Cc1nnn(-c2ccc(C(F)F)cc2)c1COc1ccc(-n2cnc(C(C)O)c2)nn1 (centres unmarked) [Example 40]
Result: 1.9

Query: Then this molecule: CC(=O)c1cn(-c2ccc(OCc3c(C)nnn3-c3ccc(C(F)F)cc3)nn2)cn1 [Example 32]
Result: 5.7

Query: Then this molecule: Cc1nnn(-c2ccc(C(F)F)cc2)c1COc1ccc(-n2cnc(Cl)c2)nn1 [Example 18]
Result: 3.7
